# target-entity: human Nav1.8/b3 (Homo sapiens)
# Construct: expressed in transfected cells; host or cells: CHO
# test-protocol: Compound Profiling Human NaV1.8/β3 Cell Line—SyncroPatch384PE Assay (automated patch clamp, stably transfected CHO cells)
# Format: cell-based
# condition-summary: P2 (IC50, inactivated state block), P2 measurement, inactivated state block; Nav1.8/b3 CHO cells, inactivation step −35 mV 10 sec; third set of compounds
pIC50: −log10 of the molar value.
compounds and their reported pIC50

Known pIC50 results, listed for orientation:
{"compound": "COc1cc(C#N)ccc1Oc1ncc(Cl)c(C)c1C(=O)Nc1cccc([S@](C)(=N)=O)c1 [Example 26C]", "measured": "7.30 to 8.30"}
{"compound": "COc1cc(C#N)ccc1Oc1ncc(-c2ccc(C#N)cc2)c(C)c1C(=O)Nc1cccc([S@](C)(=N)=O)c1 [Example 20C]", "measured": "7.30 to 8.30"}
{"compound": "Cc1nc(F)ccc1Oc1ncc(C(F)(F)F)c(C)c1C(=O)Nc1cccc([S@@](C)(=O)=NCC(C)(C)N)c1 [Example 90C]", "measured": "> 8.30"}

Summary line: Cc1nc(F)ccc1Oc1nc2ccccc2cc1C(=O)Nc1cccc([S@](C)(=N)=O)c1 [Example 97C] , human Nav1.8/b3 (Homo sapiens), reported pIC50 = 7.00 to 7.30

====

# target-entity: human Nav1.8/b3 (Homo sapiens, UniProt Q9Y5Y9)
# Construct: expressed in transfected cells; host or cells: CHO
# Sequence (Q9Y5Y9 whole entry): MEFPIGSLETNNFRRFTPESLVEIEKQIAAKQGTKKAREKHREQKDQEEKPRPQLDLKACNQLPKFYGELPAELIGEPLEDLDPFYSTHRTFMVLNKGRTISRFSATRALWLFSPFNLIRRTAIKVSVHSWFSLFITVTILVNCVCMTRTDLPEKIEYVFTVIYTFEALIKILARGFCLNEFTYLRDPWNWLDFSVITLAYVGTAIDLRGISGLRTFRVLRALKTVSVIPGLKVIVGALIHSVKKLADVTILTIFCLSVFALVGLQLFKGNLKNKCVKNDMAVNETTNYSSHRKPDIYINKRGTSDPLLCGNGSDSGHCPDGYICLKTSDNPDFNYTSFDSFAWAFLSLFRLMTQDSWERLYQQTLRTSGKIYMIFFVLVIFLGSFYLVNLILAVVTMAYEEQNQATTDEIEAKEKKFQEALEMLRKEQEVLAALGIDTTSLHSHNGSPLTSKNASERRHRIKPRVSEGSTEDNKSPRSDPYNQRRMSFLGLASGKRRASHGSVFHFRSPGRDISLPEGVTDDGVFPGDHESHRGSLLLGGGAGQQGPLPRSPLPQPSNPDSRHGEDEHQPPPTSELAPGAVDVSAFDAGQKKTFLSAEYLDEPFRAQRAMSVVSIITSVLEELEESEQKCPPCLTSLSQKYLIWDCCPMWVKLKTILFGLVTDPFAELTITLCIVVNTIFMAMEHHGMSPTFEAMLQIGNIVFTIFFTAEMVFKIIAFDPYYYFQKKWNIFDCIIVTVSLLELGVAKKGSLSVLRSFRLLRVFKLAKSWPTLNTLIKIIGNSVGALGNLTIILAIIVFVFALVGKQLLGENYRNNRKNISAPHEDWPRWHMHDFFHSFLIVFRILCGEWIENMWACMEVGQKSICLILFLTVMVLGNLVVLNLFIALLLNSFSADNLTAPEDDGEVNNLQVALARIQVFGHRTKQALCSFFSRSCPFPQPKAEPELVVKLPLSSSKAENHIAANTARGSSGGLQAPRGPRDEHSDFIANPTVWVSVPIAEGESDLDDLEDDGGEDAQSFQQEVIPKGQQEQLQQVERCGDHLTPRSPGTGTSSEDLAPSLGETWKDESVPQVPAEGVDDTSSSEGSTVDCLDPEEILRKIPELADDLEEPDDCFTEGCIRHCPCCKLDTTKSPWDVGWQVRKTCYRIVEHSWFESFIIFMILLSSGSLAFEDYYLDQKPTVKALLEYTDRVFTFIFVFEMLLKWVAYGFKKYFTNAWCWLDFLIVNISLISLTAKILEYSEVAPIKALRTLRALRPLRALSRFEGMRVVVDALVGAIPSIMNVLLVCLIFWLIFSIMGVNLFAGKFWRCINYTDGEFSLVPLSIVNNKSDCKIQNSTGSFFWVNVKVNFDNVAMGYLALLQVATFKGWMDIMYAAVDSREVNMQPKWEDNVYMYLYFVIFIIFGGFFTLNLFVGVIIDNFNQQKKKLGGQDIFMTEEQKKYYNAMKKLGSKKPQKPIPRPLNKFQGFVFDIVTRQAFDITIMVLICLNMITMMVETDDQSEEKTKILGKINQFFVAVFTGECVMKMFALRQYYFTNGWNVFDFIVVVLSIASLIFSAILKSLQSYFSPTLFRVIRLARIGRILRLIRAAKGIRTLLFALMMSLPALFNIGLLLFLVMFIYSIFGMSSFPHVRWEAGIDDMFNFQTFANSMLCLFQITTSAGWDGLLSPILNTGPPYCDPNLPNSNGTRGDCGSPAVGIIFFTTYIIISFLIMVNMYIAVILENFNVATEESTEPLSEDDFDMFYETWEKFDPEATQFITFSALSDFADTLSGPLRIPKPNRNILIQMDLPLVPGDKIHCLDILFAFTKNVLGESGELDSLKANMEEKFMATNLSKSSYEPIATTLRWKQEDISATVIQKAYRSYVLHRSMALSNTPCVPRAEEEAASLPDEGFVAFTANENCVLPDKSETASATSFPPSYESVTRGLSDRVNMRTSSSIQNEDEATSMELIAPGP
# Sequence (Q9NY72 23-215 partner): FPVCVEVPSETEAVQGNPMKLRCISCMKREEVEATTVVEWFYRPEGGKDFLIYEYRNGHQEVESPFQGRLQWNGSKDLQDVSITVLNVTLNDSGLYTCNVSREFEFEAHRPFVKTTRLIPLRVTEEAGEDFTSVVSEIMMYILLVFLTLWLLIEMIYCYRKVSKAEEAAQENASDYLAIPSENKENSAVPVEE
# test-protocol: Compound Profiling Human NaV1.8/β3 Cell Line—SyncroPatch384PE Assay (automated patch clamp, stably transfected CHO cells)
# Type: cell-based
# condition-summary: P1 (IC50, resting state block), P1 measurement, resting state block; Nav1.8/b3 CHO cells, holding potential −120 mV; third set of compounds
metric-name: IC50

// below: answered compounds
{"compound": "Cc1nc(F)ccc1Oc1ncc(I)c(C)c1C(=O)Nc1cccc([S@](C)(=N)=O)c1 [Example 122C]", "IC50": "5 to 50 nM"}
{"compound": "Cc1nc(F)ccc1Oc1ncc(C2CCC2)c(C)c1C(=O)Nc1cccc([S@](C)(=N)=O)c1 [Example 99C]", "IC50": "5 to 50 nM"}
{"compound": "CN=[S@](C)(=O)c1cccc(NC(=O)c2c(Oc3ccc(F)nc3C)ncc(C(F)(F)F)c2C)c1 [Example 33C]", "IC50": "5 to 50 nM"}

Data point: COc1c(Oc2cc(C(F)(F)F)nnc2C(=O)Nc2cccc(S(C)(=N)=O)c2)ccc(F)c1F (stereo not shown) [Example 31C] ; IC50 = 100 to 200 nM

Summary for this compound, Cc1nc(F)ccc1Oc1nc(C(F)(F)F)c(Br)c(C)c1C(=O)Nc1cccc([S@@](C)(=O)=NCCN)c1 [Example 96C] : IC50 is < 5 nM

Documented IC50 of COc1cc(C#N)ccc1Oc1ncc(-c2ccc(C#N)cc2)c(C)c1C(=O)Nc1cccc([S@](C)(=N)=O)c1 [Example 20C] : 5 to 50 nM

IC50 reported for this compound Cc1nc(F)ccc1Oc1ncc(-c2ccc(F)c(F)c2)c(C)c1C(=O)Nc1cccc([S@](C)(=N)=O)c1 : < 5 nM

====

# target-entity: human Nav1.8/b3 (Homo sapiens, UniProt Q9Y5Y9)
# Construct: expressed in transfected cells; host or cells: CHO
# test-protocol: Compound Profiling Human NaV1.8/β3 Cell Line—SyncroPatch384PE Assay (automated patch clamp, stably transfected CHO cells)
# Type: cell-based
# condition-summary: P2 measurement, inactivated state block; Nav1.8/b3 CHO cells, inactivation step −35 mV 10 sec; second set of compounds; read-out: P2 (IC50, inactivated state block)
Where a name gives a salt, the structure may show the parent alone.
metric-name: IC50

For Cc1nc(F)ccc1Oc1cc(C(F)(F)F)ccc1C(=O)Nc1cccc([S@@](C)(=O)=NC(=O)[C@@H]2CCCN2)c1 [Example 8B, formate] the compound record lists IC50 as < 5 nM
